Experiment: PAMPA (parallel artificial membrane permeability assay)
Type: in vitro ADME
Settings: PAMPA; membrane permeation rate (Pe); 50 mM MOPSO buffer pH 6.5 with 5.0% glycocholic acid, 37° C., 18 hours; read-out: iPAMPA Pe
Experimental: 4 μL of a phospholipid-organic solvent solution composed of 10% (w/v) of egg lecithin, 0.5% (w/v) of cholesterol and dodecane (all purchased from Fluka) was added to a Millipore 96-well membrane filter (hydrophobic PVDF (polyvinylidene difluoride), pore size 0.45 microm) (purchased from Millipore Japan) to make an artificial phospholipid membrane. […]
Starred links: 1 amine or outer side, 2 acyl side, 3 side chain; linkers in the order of their positions; H or OH if unused. Positions of bridges follow the written chain, without caps; N, C: chain ends. Non-standard residues stand in square brackets, D forms with d. Residues, ends and D or L forms follow the SMILES beside them. *: point of attachment. NMeF = CN[C@@H](Cc1ccccc1)C(=O)O; NMeβAla = CN(CCC(=O)[*:2])[*:1]; NMeL = CN[C@@H](CC(C)C)C(=O)O; NMeV = CN[C@H](C(=O)O)C(C)C; NMeA = CN[C@@H](C)C(=O)O; Piperidide = C1CCN(*)CC1; β3hA = C[C@H](N)CC(=O)O; Sar = CNCC(=O)O
measure-name: Papp at 18 hours, 50 µM (×10⁻⁶ cm/s)
// units = ×10⁻⁶ cm/s; emit number, no label

Need Papp at 18 hours, 50 µM, item CC(C)C[C@@H]1NC(=O)[C@H](Cc2ccccc2)N(C)C(=O)[C@H](C)N(C)C(=O)C[C@H](C)NC(=O)[C@H]([C@@H](C)O)NC(=O)[C@H](CC(C)C)N(C)C(=O)[C@H](Cc2ccccc2)NC(=O)[C@H](CC(C)C)N(C)C(=O)[C@H](CC(C)C)N(C)C1=O [DP-791] (cyclo(F[NMeL]T[β3hA][NMeA][NMeF]L[NMeL][NMeL]))
41

Bench note: what Papp at 18 hours, 50 µM did CC[C@H](C)[C@@H]1NC(=O)[C@H](CC(C)C)N(C)C(=O)[C@H](C)N(C)C(=O)[C@H](C)N(C)C(=O)CCN(C)C(=O)C[C@@H](C(=O)N(C)[C@@H](Cc2ccccc2)C(=O)N[C@@H](C)C(=O)N2CCCCC2)NC(=O)[C@H](Cc2ccccc2)N(C)C(=O)[C@H](C)N(C)C(=O)[C@H]([C@@H](C)O)NC(=O)[C@H](Cc2ccccc2)N(C)C(=O)[C@H](C)N(C)C1=O [DP-362] ([NMeβAla][NMeA][NMeA][NMeL]I[NMeA][NMeF]T[NMeA][NMeF]D[NMeF]A-Piperidide; lactam N-11) show?
27

Requested read-out: Papp at 18 hours, 50 µM. Entry: CC[C@H](C)[C@@H]1NC(=O)[C@H](C)NC(=O)C[C@@H](C(=O)N(C)[C@@H](Cc2ccccc2)C(=O)N[C@@H](C)C(=O)N2CCCCC2)NC(=O)[C@H](Cc2ccccc2)NC(=O)[C@H](C)N(C)C(=O)[C@H](C(C)C)N(C)C(=O)CN(C)C(=O)[C@H]([C@@H](C)O)NC(=O)[C@H](Cc2ccccc2)N(C)C(=O)[C@H](CC(C)C)N(C)C(=O)[C@H](CC(C)C)N(C)C1=O [DP-483] (AI[NMeL][NMeL][NMeF]T[Sar][NMeV][NMeA]FD[NMeF]A-Piperidide; lactam N-11)
18

----------
Experiment: Mouse PK test of peptides (intravenous and oral administration)
Settings: male, C57BL/6J, in vivo, po, 20 mg/kg
Positions of bridges follow the written chain, without caps; N, C: chain ends. Non-standard residues stand in square brackets, D forms with d. Residues, ends and D or L forms follow the SMILES beside them. *: point of attachment. NMeF = CN[C@@H](Cc1ccccc1)C(=O)O; NMeI = CC[C@H](C)[C@H](NC)C(=O)O; NMeL = CN[C@@H](CC(C)C)C(=O)O; NMeA = CN[C@@H](C)C(=O)O; Piperidide = C1CCN(*)CC1; NPrGly = CCCNCC(=O)O; Sar = CNCC(=O)O; tBu = CC(C)(C)*
measure-name: Tmax (h)
Supply the numeric figure in h, leaving out any unit text.

# query: Tmax of entry CC(C)C[C@@H]1NC(=O)[C@H](Cc2ccccc2)N(C)C(=O)[C@H](Cc2ccccc2)N(C)C(=O)[C@H](CC(C)C)NC(=O)[C@H](C)N(C)C(=O)[C@H]([C@@H](C)O)NC(=O)[C@H](C)N(C)C(=O)C[C@@H](C(=O)N2CCCCC2)NC(=O)[C@H](CC(C)C)N(C)C1=O [DP-125] ([NMeA]T[NMeA]L[NMeF][NMeF]L[NMeL]D-Piperidide; lactam N-9)
3.5

Request the reported Tmax associated with CCCN1CC(=O)N(C)[C@@H](CC(C)C)C(=O)N[C@@H]([C@@H](C)O)C(=O)N(C)[C@@H](C)C(=O)N(C)[C@@H](CC(C)C)C(=O)N(C)[C@@H]([C@@H](C)CC)C(=O)N[C@@H](COC(C)(C)C)C(=O)N[C@H](C(=O)N2CCCCC2)CC(=O)N(C)[C@@H](C)C(=O)N(C)[C@@H](Cc2ccccc2)C1=O [DP-540] ([NMeA][NMeF][NPrGly][NMeL]T[NMeA][NMeL][NMeI]S(tBu)D-Piperidide; lactam N-10)
1.83

Can you look up the measured Tmax of CC[C@H](C)[C@H]1C(=O)N[C@H](C(=O)N2CCCCC2)CC(=O)N[C@H](C(C)C)C(=O)N(C)[C@@H](Cc2ccccc2)C(=O)N(C)[C@@H](CC(C)C)C(=O)N[C@@H]([C@@H](C)O)C(=O)N(C)CC(=O)N(C)[C@@H](CC(C)C)C(=O)N[C@@H](COC(C)(C)C)C(=O)N1C [DP-265] ([dV][NMeF][NMeL]T[Sar][NMeL]S(tBu)[NMeI]D-Piperidide; lactam N-9) for me?
0.67

Field request: Tmax | item: CCCN1CC(=O)N(C)[C@@H](CC(C)C)C(=O)N[C@@H](COC(C)(C)C)C(=O)N(C)[C@@H](CC(C)C)C(=O)N[C@H](C(=O)N2CCCCC2)CC(=O)N[C@H](C)C(=O)N(C)[C@@H](C)C(=O)N(C)[C@@H](Cc2ccccc2)C(=O)N(C)[C@@H](CC(C)C)C(=O)N[C@@H]([C@@H](C)O)C1=O [DP-547] ([dA][NMeA][NMeF][NMeL]T[NPrGly][NMeL]S(tBu)[NMeL]D-Piperidide; lactam N-10)
1

----------
Assay: PAMPA (parallel artificial membrane permeability assay)
Assay type: in vitro ADME
Settings: PAMPA; membrane permeation rate (Pe); 50 mM MOPSO buffer pH 6.5 with 5.0% glycocholic acid, 37° C., 18 hours; read-out: iPAMPA Pe
Positions of bridges follow the written chain, without caps; N, C: chain ends. Non-standard residues stand in square brackets, D forms with d. Residues, ends and D or L forms follow the SMILES beside them. *: point of attachment. NMeF = CN[C@@H](Cc1ccccc1)C(=O)O; NMeI = CC[C@H](C)[C@H](NC)C(=O)O; NMeL = CN[C@@H](CC(C)C)C(=O)O; NMeV = CN[C@H](C(=O)O)C(C)C; NMeA = CN[C@@H](C)C(=O)O; Piperidide = C1CCN(*)CC1; Sar = CNCC(=O)O
Can you tell me Papp at 18 hours, 50 µM for the items I'm about to list?
The reply should be a number in nm/s, with the unit left off.

Can you share its Papp at 18 hours, 50 µM? I mean this compound: CC[C@H](C)[C@H]1C(=O)N(C)[C@@H](CC(C)C)C(=O)N[C@@H](C)C(=O)N(C)[C@@H](CC(C)C)C(=O)N(C)[C@@H](Cc2ccccc2)C(=O)N[C@@H]([C@@H](C)O)C(=O)N(C)[C@@H](Cc2ccccc2)C(=O)N(C)[C@@H](CC(C)C)C(=O)N(C)[C@@H](C)C(=O)N[C@H](C(=O)N2CCCCC2)CC(=O)N[C@H](C(C)C)C(=O)N1C [DP-235] ([dV][NMeI][NMeL]A[NMeL][NMeF]T[NMeF][NMeL][NMeA]D-Piperidide; lactam N-11)
90

What measured Papp at 18 hours, 50 µM goes with CC[C@H](C)[C@H]1C(=O)N[C@@H](C)C(=O)N[C@@H](Cc2ccccc2)C(=O)N(C)[C@@H](Cc2ccccc2)C(=O)N[C@@H]([C@@H](C)O)C(=O)N(C)[C@@H](C)C(=O)N[C@@H](CC(C)C)C(=O)N[C@H](C(=O)N2CCCCC2)CC(=O)N[C@H](C(C)C)C(=O)N(C)[C@@H](C(C)C)C(=O)NCC(=O)N(C)[C@@H](CC(C)C)C(=O)N1C [DP-217] ([dV][NMeV]G[NMeL][NMeI]AF[NMeF]T[NMeA]LD-Piperidide; lactam N-12) ?
380

Which Papp at 18 hours, 50 µM is listed for CC(C)C[C@@H]1NC(=O)[C@H](C)NC(=O)[C@H]([C@@H](C)O)NC(=O)[C@H](C)N(C)C(=O)C[C@@H](C(=O)N2CCCCC2)NC(=O)[C@H](CC(C)C)N(C)C(=O)[C@H](CC(C)C)NC(=O)[C@H](C(C)C)N(C)C(=O)[C@H](CC(C)C)NC(=O)[C@H](Cc2ccccc2)NC(=O)CN(C)C1=O [DP-421] ([NMeA]TAL[Sar]FL[NMeV]L[NMeL]D-Piperidide; lactam N-11) ?
290
